Values from patent US20240239794A1

molecular target: Recombinant human PKC-theta (His-tagged 362-706) (Homo sapiens (Human), UniProt Q04759); assay: PKC-theta inhibition assay (HTRF KinEASE kit); assay type: biochemical; details: ATP 6.5 μM, binned A to H, read-out: PKC-theta HTRF pIC50 (binned) (converted)
Sequence (Q04759 362-706): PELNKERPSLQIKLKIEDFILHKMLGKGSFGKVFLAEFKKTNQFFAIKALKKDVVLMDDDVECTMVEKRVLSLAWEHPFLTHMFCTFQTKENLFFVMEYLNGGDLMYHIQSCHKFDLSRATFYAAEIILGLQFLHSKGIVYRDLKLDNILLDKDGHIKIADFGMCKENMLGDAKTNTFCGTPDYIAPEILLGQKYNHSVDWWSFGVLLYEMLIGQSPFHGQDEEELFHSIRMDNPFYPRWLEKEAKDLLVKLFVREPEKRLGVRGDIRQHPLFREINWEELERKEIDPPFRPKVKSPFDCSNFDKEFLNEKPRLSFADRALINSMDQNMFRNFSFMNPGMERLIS
Counter-ions that a name gives are not always drawn.
// reported IC50 for each item listed

compound	IC50
CC1(C)C(=O)Nc2nccc(-c3nn(C4(CO)CCNC4)c4ccccc34)c21 (stereo not shown) [Example 23]	≤ 1 nM
C[C@@]1(O)C(=O)Nc2nccc(-c3nn(C4(CC#N)CCC4)c4c(F)cccc34)c21 (single isomer, unassigned) [Example 58]	≤ 1 nM
CC[C@]1(C)C(=O)Nc2nccc(-c3nn([C@@H]4CCNC[C@@H]4F)c4cc(F)ccc34)c21 (single isomer, unassigned) [Example 101]	10 to 31.6 nM
CC1(C)C(=O)Nc2nccc(-c3cn(C4CCNCC4)c4ccccc34)c21 [Example 7, Dihydrochloride]	31.6 to 100 nM
C[C@@]1(O)C(=O)Nc2nccc(-c3nn(C4(CC#N)CCC4)c4ncccc34)c21 (single isomer, unassigned) [Example 60]	3.16 to 10 nM
CC[C@@]1(C)C(=O)Nc2nccc(-c3nn([C@@H]4CCNC[C@@H]4F)c4cc(F)ccc34)c21 (single isomer, unassigned) [Example 103]	1 to 3.16 nM
COC1(C)C(=O)Nc2nccc(-c3nn(CC4(F)CCCNC4)c4ccccc34)c21 (stereo not shown) [Example 67]	31.6 to 100 nM
C[C@]1(O)C(=O)Nc2nccc(-c3nn(C4CCNCC4)c4ccccc34)c21 (single isomer, unassigned) [Example 28]	1 to 3.16 nM
CC1(C)C(=O)Nc2nccc(-c3nn(CC4(F)CCNCC4)c4ccccc34)c21 [Example 38]	1 to 3.16 nM
COCc1cc(-c2ccnc3[nH]c(=O)[nH]c23)cn1C1CCNCC1 [Example 4]	> 1000 nM
CC1(C)C(=O)Nc2nccc(-c3nn(C[C@@]4(C)COCCN4)c4ccccc34)c21 (single isomer, unassigned) [Example 31]	1 to 3.16 nM
CC1(O)C(=O)Nc2nccc(-c3nn([C@@H]4CC[C@@H](N)[C@H](F)C4)c4ccccc34)c21 (stereo partly shown) [Example 39]	≤ 1 nM
CCC1(O)C(=O)Nc2nccc(-c3nn([C@@H]4CCNC[C@@H]4F)c4ccccc34)c21 (stereo partly shown) [Example 56]	1 to 3.16 nM
CO[C@@]1(C)C(=O)Nc2nccc(-c3nn([C@@H]4CCNC[C@@H]4F)c4ccccc34)c21 (single isomer, unassigned) [Example 92]	10 to 31.6 nM
CC[C@]1(O)C(=O)Nc2nccc(-c3nn([C@H]4CCNC[C@H]4F)c4ccccc34)c21 (single isomer, unassigned) [Example 84]	31.6 to 100 nM
CC1(C)C(=O)Nc2nccc(-c3nn(C4(CF)CCNC4)c4ccccc34)c21 (stereo not shown) [Example 77]	≤ 1 nM
CC[C@]1(O)C(=O)Nc2nccc(-c3nn([C@@H]4CCNC[C@@H]4F)c4ccccc34)c21 (single isomer, unassigned) [Example 85]	31.6 to 100 nM
C[C@@]1(O)C(=O)Nc2nccc(-c3nn([C@@H]4CCNC[C@@H]4F)c4ccccc34)c21 (single isomer, unassigned) [Example 50]	≤ 1 nM
Cc1nn(C2CCNCC2)cc1-c1ccnc2[nH]c(=O)[nH]c12 [Example 2]	> 1000 nM

* * *

// values below are reported PKC-theta/PKC-delta selectivity
target: Recombinant human PKC-delta (His-tagged 345-676) (Homo sapiens (Human)); experiment: PKC-delta inhibition assay (HTRF KinEASE kit), PKC-theta/PKC-delta selectivity; format: biochemical; details: ratio, PKC-theta over PKC-delta, HTRF assays

molecule	PKC-theta/PKC-delta selectivity
CC[C@]1(C)C(=O)Nc2nccc(-c3nn([C@@H]4CCNC[C@@H]4F)c4cc(F)ccc34)c21 (single isomer, unassigned)	42
CC[C@@]1(C)C(=O)Nc2nccc(-c3nn([C@@H]4CCNC[C@@H]4F)c4cc(F)ccc34)c21 (single isomer, unassigned)	22
CC1(O)C(=O)Nc2nccc(-c3cn([C@H]4CCNC4)c4ccccc34)c21 (stereo partly drawn)	11
CC1(C)C(=O)Nc2nccc(-c3nn([C@H]4CCNC4)c4ccc(F)cc34)c21	10
CC1(C)C(=O)Nc2nccc(-c3nn(C4(CO)CCNC4)c4ccccc34)c21 (stereo not drawn)	11
CC1(C)C(=O)Nc2nccc(-c3cn(C4CCNC4)c4ccccc34)c21 (stereo not drawn)	12
CC[C@]1(C)C(=O)Nc2nccc(-c3nn([C@H]4CCNC[C@H]4F)c4cc(F)ccc34)c21 (single isomer, unassigned)	46
CC1(C)C(=O)Nc2nccc(-c3nn(C4(CC#N)CCC4)c4ccccc34)c21	15
CC[C@]1(C)C(=O)Nc2nccc(-c3nn([C@@H]4CCNC[C@@H]4F)c4ccccc34)c21 (single isomer, unassigned)	15
CC1(C)C(=O)Nc2nccc(-c3nn([C@H]4CCNC4)c4cc(F)ccc34)c21	20
CC1(C)C(=O)Nc2nccc(-c3nn(C4CCNCC4)c4c(F)cccc34)c21	13
CN1CCOCC1(C)Cn1nc(-c2ccnc3c2C(C)(C)C(=O)N3)c2ccccc21 (stereo not drawn)	17
CO[C@]1(C)C(=O)Nc2nccc(-c3nn(CC4(F)CCNCC4)c4cc(F)ccc34)c21 (single isomer, unassigned)	22
CC1(C)C(=O)Nc2nccc(-c3nn(CC4(F)CCNCC4)c4ccccc34)c21	16
COC1(C)C(=O)Nc2nccc(-c3nn(CC4(F)CCCNC4)c4ccccc34)c21 (stereo not drawn)	9
CC1(C)C(=O)Nc2nccc(-c3nn(C[C@]4(C)COCCN4)c4cc(F)ccc34)c21	29
CC[C@@]1(O)C(=O)Nc2nccc(-c3nn(C4(CC#N)CCC4)c4ccccc34)c21 (single isomer, unassigned)	12
CCC1(O)C(=O)Nc2nccc(-c3nn([C@@H]4CCNC[C@@H]4F)c4ccccc34)c21 (stereo partly drawn)	15

* * *

Form field: IC50 (one value per entry).
target: Recombinant human PKC-theta (His-tagged 362-706) (Homo sapiens (Human), UniProt Q04759); experiment: PKC-theta inhibition assay (HTRF KinEASE kit); format: biochemical; conditions: ATP 6.5 μM, read-out: PKC-theta HTRF pIC50 (converted)

compound	IC50, nM
C[C@@]1(O)C(=O)Nc2nccc(-c3nn(C4CCNCC4)c4c(OC(F)F)cccc34)c21 (single isomer, unassigned)	7.94
C[C@@]1(O)C(=O)Nc2nccc(-c3nn([C@@H]4CCNC[C@@H]4F)c4ccccc34)c21 (single isomer, unassigned)	0.794
CC[C@]1(OC)C(=O)Nc2nccc(-c3nn(CC4(F)CCNCC4)c4ccccc34)c21 (single isomer, unassigned)	2.51
CC[C@@]1(C)C(=O)Nc2nccc(-c3nn([C@@H]4CCNC[C@@H]4F)c4ccccc34)c21 (single isomer, unassigned)	12.6

* * *

Entries and their PKC-theta/PKC-delta selectivity values follow.
target: Recombinant human PKC-delta (His-tagged 345-676) (Homo sapiens (Human), UniProt Q05655); assay: PKC-delta inhibition assay (HTRF KinEASE kit), PKC-theta/PKC-delta selectivity; format: biochemical; conditions: ratio, PKC-theta over PKC-delta, HTRF assays
Sequence (Q05655 345-676): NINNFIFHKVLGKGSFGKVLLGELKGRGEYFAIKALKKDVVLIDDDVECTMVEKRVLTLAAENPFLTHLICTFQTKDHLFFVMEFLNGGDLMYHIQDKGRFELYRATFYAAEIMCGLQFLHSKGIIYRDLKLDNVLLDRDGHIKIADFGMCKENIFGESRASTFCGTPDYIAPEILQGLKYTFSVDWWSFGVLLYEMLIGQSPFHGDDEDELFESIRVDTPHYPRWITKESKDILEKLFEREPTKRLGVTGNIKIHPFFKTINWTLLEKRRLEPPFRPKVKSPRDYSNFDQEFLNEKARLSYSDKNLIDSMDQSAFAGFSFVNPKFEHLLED

molecule	assayed.system	PKC-theta/PKC-delta selectivity
CC1(O)C(=O)Nc2nccc(-c3cn([C@@H]4CCNC4)c4ccccc34)c21 (some centres unmarked) [Example 17]	Recombinant human PKC-delta (His-tagged 345-676) (Homo sapiens (Human), UniProt Q05655)	7
CC1(C)C(=O)Nc2nccc(-c3ccn([C@H]4CC[C@H](N)CC4)n3)c21	Recombinant human PKC-delta (His-tagged 345-676) (Homo sapiens (Human), UniProt Q05655)	3
CC[C@]1(C)C(=O)Nc2nccc(-c3nn([C@H]4CCNC4)c4ccccc34)c21 (single isomer, unassigned)	Recombinant human PKC-delta (His-tagged 345-676) (Homo sapiens (Human), UniProt Q05655)	28
CC1(O)C(=O)Nc2nccc(-c3ccn(C4CCNCC4)c3)c21 (centres unmarked)	Recombinant human PKC-delta (His-tagged 345-676) (Homo sapiens (Human), UniProt Q05655)	4
CC[C@]1(C)C(=O)Nc2nccc(-c3nn([C@H]4CCNC[C@H]4F)c4ccc(F)cc34)c21 (single isomer, unassigned)	Recombinant human PKC-delta (His-tagged 345-676) (Homo sapiens (Human), UniProt Q05655)	29
CC1(C)C(=O)Nc2nccc(-c3ccn(C4CCNCC4)c3)c21	Recombinant human PKC-delta (His-tagged 345-676) (Homo sapiens (Human), UniProt Q05655)	3
CC[C@@]1(C)C(=O)Nc2nccc(-c3nn([C@H]4CCNC[C@H]4F)c4ccccc34)c21 (single isomer, unassigned)	Recombinant human PKC-delta (His-tagged 345-676) (Homo sapiens (Human), UniProt Q05655)	23
C[C@@]1(O)C(=O)Nc2nccc(-c3nn(CC4(F)CCNCC4)c4ccccc34)c21 (single isomer, unassigned)	Recombinant human PKC-delta (His-tagged 345-676) (Homo sapiens (Human), UniProt Q05655)	12
C[C@@]1(O)C(=O)Nc2nccc(-c3nn(C4(CC#N)CNC4)c4ccccc34)c21 (single isomer, unassigned)	Recombinant human PKC-delta (His-tagged 345-676) (Homo sapiens (Human), UniProt Q05655)	3
CC1(C)C(=O)Nc2nccc(-c3nn(C4(CF)CCNC4)c4ccccc34)c21 (centres unmarked)	Recombinant human PKC-delta (His-tagged 345-676) (Homo sapiens (Human), UniProt Q05655)	11
CO[C@@]1(C)C(=O)Nc2nccc(-c3nn(C4(CC#N)CCC4)c4ccccc34)c21 (single isomer, unassigned)	Recombinant human PKC-delta (His-tagged 345-676) (Homo sapiens (Human), UniProt Q05655)	9
